Give measured self-cleavage for each item. Keep answers brief.
B1: HDV Ribozyme (parent)
chain: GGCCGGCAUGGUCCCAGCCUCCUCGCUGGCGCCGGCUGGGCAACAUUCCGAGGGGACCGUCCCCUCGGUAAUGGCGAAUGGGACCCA

Variants of: B1
Test: self-cleavage, relative activity (ratio to wild type); higher = more cleavage; co-transcriptional

Worked cases, answers included:
>>> recorded_measurement("G5A C19G")
0.0898
>>> recorded_measurement("G40C G80U")
0.0817
>>> recorded_measurement("G31A C75A")
0.136

Could I get self-cleavage for every one of these entries?
1. A56U A83G
2. C4A G10A
3. G31C U79C
4. U27A C61G
5. U12G C57U
6. G17U C41U
7. U12G U69A

Response:
0.876
0.0554
0.282
0.504
0.831
0.253
0.997

Could I get self-cleavage for every one of these entries?
1. C36G C57U
2. G52U G67C
3. G35U G76C
4. G17A A51C
5. G34A C75U

Response:
1. 0.128
2. 0.295
3. 0.62
4. 0.755
5. 0.086

Could I get self-cleavage for every one of these entries?
1. C21G U65A
2. C44A C64U

Response:
1: 0.0536; 2: 0.665

Could I get self-cleavage for every one of these entries?
1. G34U U72G
2. C13G A45U
3. U23C C61A
4. G17U G39A
5. U20C A71C
6. G6U

Response:
1: 0.297; 2: 0.0346; 3: 0.982; 4: 0.128; 5: 0.0692; 6: 0.63
